# assay.explanation: Capsule perfume leakage in liquid fabric enhancer (LFE), headspace SPME GC/MS
# Assay type: physicochemical
# condition.summary: PRM of Perfume 1 out of Example 10-2 capsules (Sample A); LFE Composition 1
readout.label: Leakage (as %) after 1 week at 35° C.
Please respond with the number in % and leave the unit unwritten.

Worked examples follow.
CCC(C)(O)CCCC(C)C (stereo not drawn) [Tetrahydro linalool] ... 8
CC12CCC(CC1)C(C)(C)O2 ... 8

Reported Leakage (as %) after 1 week at 35° C. of CC1=CC(C)C(C=O)CC1 (stereo not drawn) : 8
